# Tested on: COS-7
# measurement description: Selectivity ratio of EC50 for human PPARgamma to EC50 for human PPARalpha expressed in african green monkey COS7 cells
# Assay type: cell-based
Measured Ratio EC50 accompanies every entry in the list below.
Enter a number only.

Asked: What value of Ratio EC50 has been reported for the following compound? CCCCC(Sc1ccc(OCCCOc2ccc(-c3ccccc3)cc2)cc1)C(=O)O (centres undefined)
Given back: 5

Asked: What value of Ratio EC50 has been reported for the following compound? CCCCC(Sc1ccc(OCCCOc2ccc3ncccc3c2)cc1)C(=O)O (centres undefined)
Given back: 6

Asked: What value of Ratio EC50 has been reported for the following compound? CCCCC(Sc1ccc(OCCCOc2ccccc2)cc1)C(=O)O (centres undefined)
Given back: 9

Asked: What value of Ratio EC50 has been reported for the following compound? CCCCC(Sc1ccc(OCCCOc2cccc(C)c2C)cc1)C(=O)O (centres undefined)
Given back: 54

----------
# test target: Peroxisome proliferator-activated receptor gamma (Homo sapiens, UniProt P37231)
# Sequence (P37231 whole entry, the tested form may be a part): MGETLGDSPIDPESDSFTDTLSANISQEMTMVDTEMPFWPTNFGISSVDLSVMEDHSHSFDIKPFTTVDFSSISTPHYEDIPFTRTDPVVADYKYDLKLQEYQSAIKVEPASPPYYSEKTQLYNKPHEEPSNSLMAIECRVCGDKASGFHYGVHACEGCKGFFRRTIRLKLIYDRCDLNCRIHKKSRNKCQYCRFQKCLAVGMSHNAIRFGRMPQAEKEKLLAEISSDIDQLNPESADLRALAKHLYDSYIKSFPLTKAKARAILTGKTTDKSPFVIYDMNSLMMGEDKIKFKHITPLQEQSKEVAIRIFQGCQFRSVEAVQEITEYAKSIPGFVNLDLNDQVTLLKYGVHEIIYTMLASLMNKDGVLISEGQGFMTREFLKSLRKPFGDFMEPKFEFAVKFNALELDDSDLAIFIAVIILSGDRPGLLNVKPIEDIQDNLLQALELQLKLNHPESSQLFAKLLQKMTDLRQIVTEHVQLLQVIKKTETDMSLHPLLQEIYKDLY
# measurement description: Agonist activity at human PPARgamma expressed in african green monkey COS7 cells by Gal4 transactivation assay
pEC50: −log10 of the molar value.
readout name: pEC50

I. CCCCC(Sc1ccc(OCCCOc2cccc(C(F)(F)F)c2)cc1)C(=O)O (stereo unspecified)
II. CCCCC(Sc1ccc(OCCCOc2ccc3ncccc3c2)cc1)C(=O)O (stereo unspecified)
III. CCCCC(Sc1ccc(OCCCOc2cccc3c2CCCC3)cc1)C(=O)O (stereo unspecified)
Asked: Ascending by pEC50, please. A complete answer lists every label in the requested sequence.
Given back: III, I, II

----------
# test target: Peroxisome proliferator-activated receptor gamma (Homo sapiens)
# measurement description: Agonist activity at human PPARgamma expressed in african green monkey COS7 cells at 1 uM by Gal4 transactivation assay relative to pioglitazone
# Format: functional, cell-based
# assay context: COS-7
readout name: Activity (%)

1. CCCCC(Sc1ccc(OCCCOc2cccc(C)c2)cc1)C(=O)O (stereo unspecified)
2. CCCCC(Sc1ccc(OCCCOc2ccc(C)c(C)c2)cc1)C(=O)O (stereo unspecified)
Asked: Look at 1 and 2 . Which one has the lower recorded Activity number? Please identify the chosen entry by its label.
Given back: 2
(2: 61%, 1: 96%)

----------
# test target: Peroxisome proliferator-activated receptor alpha (Homo sapiens, UniProt Q07869)
# Sequence (Q07869 whole entry, the tested form may be a part): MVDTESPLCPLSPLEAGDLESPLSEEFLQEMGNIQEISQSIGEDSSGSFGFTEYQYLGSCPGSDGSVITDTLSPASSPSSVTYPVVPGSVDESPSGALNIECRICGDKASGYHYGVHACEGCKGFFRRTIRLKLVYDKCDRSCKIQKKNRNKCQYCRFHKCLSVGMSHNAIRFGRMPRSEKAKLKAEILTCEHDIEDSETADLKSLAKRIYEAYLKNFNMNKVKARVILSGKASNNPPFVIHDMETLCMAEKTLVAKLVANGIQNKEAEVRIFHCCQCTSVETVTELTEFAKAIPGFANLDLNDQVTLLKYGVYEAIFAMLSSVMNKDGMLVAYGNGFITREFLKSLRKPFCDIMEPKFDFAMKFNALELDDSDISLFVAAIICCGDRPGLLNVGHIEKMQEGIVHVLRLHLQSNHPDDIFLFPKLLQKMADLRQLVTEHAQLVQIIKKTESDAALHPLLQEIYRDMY
# measurement description: Agonist activity at human PPARalpha expressed in african green monkey COS7 cells by Gal4 transactivation assay
pEC50: −log10 of the molar value.
readout name: pEC50

Some molecules with recorded pEC50:
molecule: Cc1cccc(OCCCOc2ccc(SCC(=O)O)cc2)c1C
measured value: 6.22
--
molecule: CCCCC(Sc1ccc(OCCCOc2ccc3ncccc3c2)cc1)C(=O)O (stereo not given)
measured value: 6.66
--
molecule: CCCCC(Sc1ccc(OCCCOc2ccccc2)cc1)C(=O)O (stereo not given)
measured value: 6.54

1. CCCCC(Sc1ccc(OCCCOc2ccc(-c3ccccc3)cc2)cc1)C(=O)O (stereo not given)
2. CCCCC(Sc1ccc(OCCCOc2cccc3c2CCCC3)cc1)C(=O)O (stereo not given)
Asked: // pick larger pEC50 from pair: 1 vs 2 Please identify the chosen entry by its label.
Given back: 1
(1: 6.96, 2: 6.72)

1. CCCCC(Sc1ccc(OCCCOc2cccc(C(C)C)c2)cc1)C(=O)O (stereo not given)
2. CCCCC(Sc1ccc(OCCCOc2ccccc2C)cc1)C(=O)O (stereo not given)
3. CCCCC(Sc1ccc(OCCCOc2ccc(C)cc2)cc1)C(=O)O (stereo not given)
4. CCCCC(Cc1ccc(OCCCOc2cccc(C)c2C)cc1)C(=O)O (stereo not given)
Asked: Put the items in sequence by pEC50, from largest down. A complete answer lists every label in the requested sequence.
Given back: 3, 1, 2, 4
(3: 7.07, 1: 6.82, 2: 6.60, 4: 5.82)

P. CCCC[C@@H](Sc1ccc(OCCCOc2cccc(C)c2C)cc1)C(=O)O
Q. CCCCC(Sc1ccc(OCCCOc2ccc(Cl)c(C(F)(F)F)c2)cc1)C(=O)O (stereo not given)
R. CCCC[C@H](Sc1ccc(OCCCOc2cccc(C)c2C)cc1)C(=O)O
S. CCCCC(Sc1ccc(OCCCOc2cccc(C)c2)cc1)C(=O)O (stereo not given)
T. CCCCC(Sc1ccc(OCCCOc2ccc(C)c(C)c2)cc1)C(=O)O (stereo not given)
Asked: Put the items in sequence by pEC50, from largest down. A complete answer lists every label in the requested sequence.
Given back: P, T, S, Q, R
(P: 7.96, T: 7.68, S: 7.05, Q: 6.41, R: 5.77)
